Test system: MDR1 (human, transfected)
assay_method_text: MDR1-MDCK permeability
stated_conditions: dog, MDCK-MDR1
Method: Caco-2 [36] or MDR1-MDCK (Madin Darby canine kidney cells transfected with the human multidrug resistance MDR1 gene) cell monolayers were grown to confluence on collagen-coated, microporous, polycarbonate membranes in 12-well microtitre plates. […] The apparent permeability and recovery were calculated using standard methods. […] 4. […] Analytical conditions are outlined in Attachment I. The apparent permeability, Papp, and per cen t r ecover y wer e calculated as follows: […]
measured_endpoint: efflux ratio
Please state the value as a number alone, without comment.

Lookup: Entry under review: C[C@H]1O[C@@H](O[C@H]2[C@@H](O)C[C@H](O[C@H]3[C@@H](O)C[C@H](O[C@H]4CC[C@@]5(C)[C@H](CC[C@@H]6[C@@H]5C[C@@H](O)[C@]5(C)[C@@H](C7=CC(=O)OC7)CC[C@]65O)C4)O[C@@H]3C)O[C@@H]2C)C[C@H](O)[C@@H]1O [Digoxin, reference compound] . Reported efflux ratio?
Found: 68.8
